Entries and their inhibition at 1 h, 10 μM
Target: BSEP (Macaca fascicularis, UniProt D2CFL3)
Sequence (D2CFL3 1-1323): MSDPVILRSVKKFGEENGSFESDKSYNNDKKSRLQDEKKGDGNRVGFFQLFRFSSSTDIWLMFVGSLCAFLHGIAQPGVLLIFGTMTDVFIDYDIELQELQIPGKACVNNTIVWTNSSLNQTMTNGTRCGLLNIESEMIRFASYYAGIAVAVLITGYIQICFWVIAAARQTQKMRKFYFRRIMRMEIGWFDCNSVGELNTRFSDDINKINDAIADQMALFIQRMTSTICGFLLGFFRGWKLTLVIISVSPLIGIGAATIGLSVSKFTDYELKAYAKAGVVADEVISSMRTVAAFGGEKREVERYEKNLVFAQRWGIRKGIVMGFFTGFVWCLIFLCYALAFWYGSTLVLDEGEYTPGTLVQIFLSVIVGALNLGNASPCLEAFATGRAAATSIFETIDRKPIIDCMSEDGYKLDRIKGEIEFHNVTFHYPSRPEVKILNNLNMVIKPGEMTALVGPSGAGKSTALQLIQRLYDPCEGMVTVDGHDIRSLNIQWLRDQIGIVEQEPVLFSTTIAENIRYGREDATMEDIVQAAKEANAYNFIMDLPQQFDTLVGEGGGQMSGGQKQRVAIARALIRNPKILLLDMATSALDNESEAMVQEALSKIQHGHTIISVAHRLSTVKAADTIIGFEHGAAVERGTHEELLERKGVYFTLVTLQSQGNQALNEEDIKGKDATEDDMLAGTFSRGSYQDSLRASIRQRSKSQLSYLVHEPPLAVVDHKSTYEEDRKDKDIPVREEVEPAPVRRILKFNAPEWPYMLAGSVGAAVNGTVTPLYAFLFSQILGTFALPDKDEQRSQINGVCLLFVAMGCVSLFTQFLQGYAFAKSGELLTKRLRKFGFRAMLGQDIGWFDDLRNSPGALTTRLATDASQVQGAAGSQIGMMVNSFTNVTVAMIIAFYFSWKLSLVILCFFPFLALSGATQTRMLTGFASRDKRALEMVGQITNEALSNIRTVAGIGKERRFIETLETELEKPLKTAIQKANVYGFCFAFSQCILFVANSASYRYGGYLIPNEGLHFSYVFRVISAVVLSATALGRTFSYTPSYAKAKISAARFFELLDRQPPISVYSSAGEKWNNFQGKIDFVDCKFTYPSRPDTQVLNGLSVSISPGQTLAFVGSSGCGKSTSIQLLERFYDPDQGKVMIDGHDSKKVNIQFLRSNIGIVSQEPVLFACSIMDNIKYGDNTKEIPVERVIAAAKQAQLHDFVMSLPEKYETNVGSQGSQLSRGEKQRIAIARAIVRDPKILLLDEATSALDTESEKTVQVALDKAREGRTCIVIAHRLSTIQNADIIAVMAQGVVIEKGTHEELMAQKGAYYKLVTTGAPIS
Test: in vitro
Conditions: monkey, hepatocytes in suspension, probe taurocholate
Readout label: inhibition at 1 h, 10 μM

>  <Compound>
CC(C)NCC(O)COc1cccc2ccccc12 (stereo not drawn)

>  <Readout label>
inhibition at 1 h, 10 μM

>  <Observed>
< 50%

$$$$
>  <Compound>
CC[C@]1(O)C[C@@H]2CN(CCc3c([nH]c4ccccc34)[C@@](C(=O)OC)(c3cc4c(cc3OC)N(C)[C@H]3[C@@](O)(C(=O)OC)[C@H](OC(C)=O)[C@]5(CC)C=CCN6CC[C@]43[C@@H]65)C2)C1

>  <Readout label>
inhibition at 1 h, 10 μM

>  <Observed>
< 50%

$$$$
>  <Compound>
CC(=O)N1CCN(c2ccc(OCC3COC(Cn4ccnc4)(c4ccc(Cl)cc4Cl)O3)cc2)CC1 (stereo not drawn)

>  <Readout label>
inhibition at 1 h, 10 μM

>  <Observed>
> 50%

$$$$
>  <Compound>
O=c1c(O)c(-c2ccc(O)c(O)c2)oc2cc(O)cc(O)c12

>  <Readout label>
inhibition at 1 h, 10 μM

>  <Observed>
< 50%

$$$$
>  <Compound>
OC(Cn1cncn1)(Cn1cncn1)c1ccc(F)cc1F

>  <Readout label>
inhibition at 1 h, 10 μM

>  <Observed>
< 50%

$$$$
>  <Compound>
Cc1c(O)cccc1C(=O)N[C@@H](CSc1ccccc1)[C@H](O)CN1C[C@H]2CCCC[C@H]2C[C@H]1C(=O)NC(C)(C)C

>  <Readout label>
inhibition at 1 h, 10 μM

>  <Observed>
> 50%

$$$$
